Test system: T-47D breast
Test: NCI tumour cell line growth inhibition, 48 h
Overview of recorded TGI for various molecules

>>> result("C=C1C(=O)OC2/C=C(/C)C(OC(C)=O)CC(O)/C(C)=C\\C(OC(=O)/C(C)=C\\C)C12 (stereo unspecified)")
"> 100 µM"
>>> result("CCN(CC)Cc1ccc(Nc2nccc(-c3cnn4ncccc34)n2)cc1")
"6.6 µM"

Notebook: COc1ccc2c(c1)c(CC(=O)O)c(C)n2C(=O)c1ccc(Cl)cc1 , TGI read as > 100 µM

Short answer for O=c1oc2ccccc2cc1-c1cn2cc(Cl)ccc2n1 : TGI was > 54.9 µM

TGI in this record for CC(=O)Nc1ccc(OC2=CCN(C)CC2)cc1 : > 100 µM

TGI measured on CC1(C)CC(C)(C)C1=NNC(N)=O = > 100 µM

Data point: CCSCCCN(CCCSCC)CCCSCC ; TGI = > 100 µM

* * *

Tested on: MOLT-4 leukemia
Assay: NCI tumour cell line growth inhibition, 48 h
readout type: TGI

>>> result("O=C(OCCN=c1c2ccccc2ccc2ccccc12)c1ccc([N+](=O)[O-])cc1")
"> 100 µM"

// field: TGI; key: CC[C@H](CO)Nc1nc(NCc2ccccc2)n2ncc(C(C)C)c2n1 ; value = 9.46 µM

# TGI (compound: CCN(C(=S)N[C@H](C(=O)N[C@@H](C)C(=O)OC)C(C)C)c1ccccc1 ) is > 100 µM

Quick note, TGI for COc1ccc(C2SC(C)C(=O)N2NC(=O)C(O)c2ccccc2)cc1OC (centres undefined) landed at > 100 µM

* * *

Tested on: HL-60(TB) leukemia
Test: NCI tumour cell line growth inhibition, 48 h
Measured TGI of individual entries

Take a look at these entries with their results.
>>> result("c1cn(C23C4C5C6C4C2C6C53)cn1 (stereo not given)")
"> 100 µM"
>>> result("COC(=O)c1c(OC(C)=O)ccc2c1c1c(n2C)C(=O)c2ccccc2C1=O")
"> 100 µM"
>>> result("C/C=C(/COC(C)=O)C(=O)OC1C=C(C=O)C(C)(C)C=C1C (stereo not given)")
"> 100 µM"
>>> result("CCCCN(CCCC)c1ccc(C(=N)c2ccc(N(CCCC)CCCC)cc2)cc1")
"1.95 µM"
>>> result("CN(C(=O)c1ccco1)C(=S)N1CCN(c2ccccc2)CC1")
"> 100 µM"

As a next step, examine the molecule that follows.
Record C[C@H]1C[C@H]2[C@@H]3C(C)(C)O[C@]4(O)C(=O)[C@]5(O)[C@@H](C)CC[C@H]1[C@]25C(=O)[C@]34C . Reported TGI: 59.2 µM

* * *

System: MDA-MB-435
Experiment: NCI tumour cell line growth inhibition, 48 h
Quick reference: TGI of the listed items.

>>> result("O=C(Nc1ccccc1)N(CCCCN(Cc1ccccc1)C(=O)Nc1ccccc1)Cc1ccccc1")
"> 100 µM"
>>> result("COc1ccccc1NC(=O)CC(=O)N1N=C(C)C(N=Nc2ccc(C(=O)O)cc2)C1=O (stereo not given)")
"> 100 µM"
>>> result("COc1cccc(-n2ncc3c(N/N=C/c4ccncc4)ncnc32)c1")
"> 25 µM"

The reported MDA-MB-435 TGI of CC1(O)CC(=O)c2c(cc3ccc(-c4c5c(c(O)c6c(O)cccc46)C(=O)CC(C)(O)C5)c(O)c3c2O)C1 (stereo not given) is 1.97 µM

TGI on MDA-MB-435 for COc1ccc(C2SC(C)C(=O)N2NC(=O)C(O)c2ccccc2)cc1OC (stereo not given) is > 100 µM

Tested on MDA-MB-435: CC#CC(=O)SCCNC(=O)CC . Observed TGI: > 10 µM

Log: MDA-MB-435, compound O=C(Nc1nc2ccccc2s1)c1cc([N+](=O)[O-])ccc1Cl , TGI = > 100 µM

The compound CCOC(=O)c1nc2ccc(C(F)(F)F)cc2nc1Oc1cc(OC)cc(OC)c1 , tested on MDA-MB-435, showed TGI of > 100 µM

Record COC(=O)C(Cc1ccccc1)NP(=O)(O)OCC1OC(n2cc(F)c(=O)[nH]c2=O)CC1O (stereo not given) has MDA-MB-435 TGI equal to > 100 µM

The compound CC(=O)c1c(C(F)(F)F)n([O-])c2cc(Cl)c(Cl)cc2[n+]1=O , tested on MDA-MB-435, showed TGI of 2.67 µM

* * *

System: PC-3 prostate
Experiment: NCI tumour cell line growth inhibition, 48 h
readout type: TGI

>>> result("COc1ccc2c(c1)c(CC(=O)O)c(C)n2C(=O)c1ccc(Cl)cc1")
"> 100 µM"
>>> result("CSc1n[nH]c(N)c1C(=O)Nc1ccc(C)cc1")
"> 100 µM"
>>> result("O=C(Nc1ccccc1)N(CCCCN(Cc1ccccc1)C(=O)Nc1ccccc1)Cc1ccccc1")
"> 100 µM"
>>> result("CCOc1cc(C2CC(c3ccc(NS(=O)(=O)c4cc([N+](=O)[O-])ccc4C)cc3)=NN2c2ccc([N+](=O)[O-])cc2[N+](=O)[O-])ccc1O (stereo not given)")
"64.7 µM"

From here, focus on the item given below.
TGI reported for this molecule COC1OC2COC1(OC)C1OC(C)(C)OC21 (stereo not given) : > 100 µM

* * *

Tested on: SW-620 colon
Experiment: NCI tumour cell line growth inhibition, 48 h; in the data active = GI50 below about 0.43 µM; inactive = the rest
Would you mind answering with one of these outcomes? True (active), False (inactive)

Solved cases below.
>>> qualitative_label("CN(C)c1ccc2c(c1)OC(N)=C(C#N)C2c1ccc2c(c1)CCO2 (centres undefined)")
"True"
>>> qualitative_label("O=C(Nc1cccc(NC(=O)Nc2cc(C(F)(F)F)ccc2Cl)c1)Nc1cc(C(F)(F)F)ccc1Cl")
"False"
>>> qualitative_label("CC1(C)[C@@H](OC(N)=O)[C@H]2O[C@H]2[C@]2(CO)[C@H]3CC[C@]4(C)[C@@H](c5ccc(=O)oc5)[C@@H](Cl)C[C@]4(O)C3=CC[C@@H]12")
"True"

Ask: Given Cc1cc(N2CCCC2)nc(N(CCNc2ccnc3cc(Cl)ccc23)Cc2ccco2)n1 , state the outcome it received in this test.
Result: False

Ask: Please indicate how the test categorized CCN(CC)Cc1ccc(Nc2nccc(-c3cnn4ncccc34)n2)cc1 .
Result: True

Ask: Any idea what this test logged for C[C@@H]1CC[C@H]2C(C(O)CCCCC(O)C3=C(C(F)(F)F)O[C@@H]4O[C@@]5(C)CC[C@H]6[C@H](C)CC[C@@H]3[C@@]46OO5)=C(C(F)(F)F)O[C@@H]3O[C@@]4(C)CC[C@@H]1[C@]32OO4 (some centres undefined) ?
Result: False

Ask: Query: recorded result category for O=[N+]([O-])c1cccc([As]=[As]c2cccc([N+](=O)[O-])c2)c1 (centres undefined) in this test
Result: True

Ask: Assay outcome for Cc1ccc(CNc2c3ccccc3nc3cc(NC(=O)CCN4CCCC4)ccc23)cc1 : what was it?
Result: True

Ask: What did the test return for NC(=S)N/N=C/c1ncccc1N ?
Result: False

* * *

Test system: CCRF-CEM leukemia
Experiment: NCI tumour cell line growth inhibition, 48 h
Some molecules, each annotated with its measured TGI.

// solved cases for TGI follow
>>> result("COc1c2c(nc3ccccc13)-c1cc3c(c(=O)n1C2)COC(=O)C3(O)CC(=O)N1CCOCC1 (stereo not given)")
"3.95 µM"
>>> result("COc1ccc(C)cc1Nc1nnc(-c2ccccc2N)s1")
"> 100 µM"
>>> result("CC1(C)CC(C)(C)C1=NNC(N)=O")
"> 100 µM"

The molecule COc1cc2c(cc1OC)C(Cl)C(c1ccc(Cl)c(Cl)c1)=C2Cl (stereo not given) , when measured on CCRF-CEM leukemia, yielded TGI of 16.7 µM

Param item: O=C(NC[C@H](O)CO)c1ccncc1Nc1ccc(I)cc1F ; param system: CCRF-CEM leukemia; output TGI: > 100 µM

Log: CCRF-CEM leukemia, molecule CCOC(=O)c1nc2ccc(C(F)(F)F)cc2nc1Oc1cc(OC)cc(OC)c1 , TGI = > 100 µM

// TGI (CCRF-CEM leukemia) for O=c1cc(N2CCN(c3cc(=O)n4ccccc4n3)CC2)oc2ccccc12 = > 100 µM

// TGI (CCRF-CEM leukemia) for CCSCCCN(CCCSCC)CCCSCC = > 100 µM

* * *

Tested on: OVCAR-4 ovarian
Assay: NCI tumour cell line growth inhibition, 48 h; in the data active = GI50 below about 0.43 µM; inactive = the rest
Form entry, call: pick from 1 for active, -1 for inactive

>>> qualitative_label("COc1ccc(/C=C\\c2cc(OC)c(OC)c(OC)c2)cc1OC")
-1
>>> qualitative_label("CC1(C)[C@@H](OC(N)=O)[C@H]2O[C@H]2[C@]2(CO)[C@H]3CC[C@]4(C)[C@@H](c5ccc(=O)oc5)[C@@H](Cl)C[C@]4(O)C3=CC[C@@H]12")
1
>>> qualitative_label("COc1cc(C(=O)NC2CCN(C)CC2)c(F)cc1Nc1ncc2c(n1)N(C1CCCC1)CC(F)(F)C(=O)N2C")
1

Here is the next item to consider.
Ask: What was the test verdict on CC[C@H](CO)Nc1nc(NCc2ccccc2)n2ncc(C(C)C)c2n1 ?
Result: -1
